- TARGET_OR_TEST_SYSTEM: T1, ARHGAP21, Q5T5U3
- T1 sequence (Q5T5U3 45-169, limits assumed, looked up): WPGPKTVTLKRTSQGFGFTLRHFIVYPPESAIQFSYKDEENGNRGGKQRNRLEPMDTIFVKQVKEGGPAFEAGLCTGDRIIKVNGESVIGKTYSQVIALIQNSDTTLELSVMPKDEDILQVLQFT
- ASSAY_NOTES: holdup assay
- Set-up: key: below the threshold = too weak to quantify, mostly under pKd 3.1 to 4
- CONDITION_SET: plain residues with an end cap or a label only (N-terminal biotin on a linker: ahx)
ASSAY_METRIC: pKd

[[record]]
binder = "HNAFLSVTTV [PDZRN4, Q6ZMN7]"
assay_metric = "pKd"
result = 3.5

[[record]]
binder = "RAVEEEESRF [PSCDBP, O60759]"
assay_metric = "pKd"
result = "below the threshold"

[[record]]
binder = "RRRKRKRTYL [HPV49-L2, P36762]"
assay_metric = "pKd"
result = 3.6

[[record]]
binder = "NRKREIFSNF [NHERF2, Q15599]"
assay_metric = "pKd"
result = "below the threshold"

